- Assay Text: chemical genetic growth profiling, strain panel (AID 1159580);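 note: tested at 20 µM; growth read once vehicle control cultures reached saturation at 30 °C; lower values mean less growth of the strain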
- Condition Description: S. cerevisiae deletion strains, growth OD, locus YHR082C, strain KSP1
In all, about 5,500 compounds went through this assay and about 2,000 (36%) were called active. About 18% were inconclusive and are not listed. Cut-off read from the data, not from the text of the source: active = normalized growth mostly below about 0.91 (no sharp cut-off); inconclusive = no clear call, values can overlap the other calls; inactive = mostly above about 0.92. This is one part of the list.
Respond with a class label; see active, inactive

- Compound: "CC(C)(C)NC(=S)N/N=C\\c1ccccc1O"
  Category: "inactive"
- Compound: "Oc1c(Br)cc(Br)cc1C=Nc1ccccn1"
  Category: "active"
- Compound: "O=C1Nc2ccccc2/C1=C\\c1cccc([N+](=O)[O-])c1"
  Category: "inactive"
- Compound: "COc1ccccc1NC(=S)N/N=C\\c1ccccc1O"
  Category: "inactive"
- Compound: "CN(C)C=Nc1nnc(Sc2nc3c(Cl)cc(Cl)cc3s2)s1"
  Category: "inactive"
- Compound: "O=C1/C(=C/c2ccccn2)CCc2ccccc21"
  Category: "inactive"
- Compound: "Cc1nnc2n1N=C(c1ccc(CC(C)C)cc1)C(C)S2 (configuration not stated)"
  Category: "inactive"
- Compound: "FC(F)(F)c1cccc(NC(=S)NN=C2CCCCCC2)c1"
  Category: "inactive"
- Compound: "CC(NC(=S)N/N=C\\c1ccccc1O)c1ccccc1 (configuration not stated)"
  Category: "inactive"
- Compound: "FC(F)(F)c1ccc(N2CCc3ccccc3C2)c(NC(=S)Nc2cc(Cl)cc(Cl)c2)c1"
  Category: "inactive"

Name the outcome recorded for `O=C1Nc2ccccc2/C1=C\c1c(Cl)cccc1Cl` in the assay.
inactive

Name the outcome recorded for `Cc1ccc(C)n1-c1ccc(/C=C2/C(=O)Nc3ccccc32)cc1` in the assay.
inactive
